Details: 298.15 K; 101.33 kPa; Liquid; Pycnometric method
Numbers after ± are expanded uncertainties.
property label: mass density
Report as: number unit

// below: answered molecules
CC(C)O	781.3 ± 4.5 kg/m3
CCO	784.9 ± 4.5 kg/m3
CCCCO	805.8 ± 4.8 kg/m3

Q) Return reported mass density. Input molecule: CCCO
A) 799.6 ± 4.7 kg/m3

Q) Look up and report measured mass density for this entry: Cc1cccc(O)c1
A) 1030 ± 7.7 kg/m3

Q) State its mass density for this molecule: CC(C)CO
A) 797.8 ± 4.7 kg/m3

Q) For the molecule CCC(C)O (centres undefined) , give its reported mass density.
A) 802.4 ± 4.7 kg/m3

Q) Using the record for CO , state its measured mass density.
A) 786.4 ± 4.6 kg/m3

Q) Look up mass density of CC(C)(C)O and report it.
A) 781.2 ± 4.5 kg/m3

###

Assay: refractive index (Na D-line) (dimensionless)
Conditions: 298.15 K; 101.33 kPa; Liquid; Standard Abbe refractometry
Consider the following molecules and their measured refractive index readings.
Give the figure by itself; no unit, no explanation.

CCO	1.3594

Q) Please give measured refractive index of the following entry: CC(C)CO
A) 1.3939

Q) Retrieve refractive index measured for CCCCO and print it.
A) 1.3974

Q) Answer with the recorded refractive index for the molecule listed here: CC(C)(C)O
A) 1.3852

Q) Name the recorded refractive index of the item CO in your answer.
A) 1.3265

###

Assay: refractive index (Na D-line) (dimensionless)
Settings: 298.15 K; 101.33 kPa; Liquid; Standard Abbe refractometry
Listing: refractive index of selected molecules
When you answer, write just the number.

Q) Identify refractive index associated with the molecule Cc1cccc(O)c1
A) 1.5395

Q) Give me measured refractive index, please, for this molecule: CC(C)O
A) 1.3752

Q) Supply measured refractive index of CCCO in your reply.
A) 1.3837

Q) Identify the reported refractive index for the following entry. CCC(C)O (centres undefined)
A) 1.3953
